target: human IL-21R expressed on cells (human, UniProt Q9HBE5 20-538); assay: cell-based or functional assay
Sequence (Q9HBE5 20-538 limits assumed): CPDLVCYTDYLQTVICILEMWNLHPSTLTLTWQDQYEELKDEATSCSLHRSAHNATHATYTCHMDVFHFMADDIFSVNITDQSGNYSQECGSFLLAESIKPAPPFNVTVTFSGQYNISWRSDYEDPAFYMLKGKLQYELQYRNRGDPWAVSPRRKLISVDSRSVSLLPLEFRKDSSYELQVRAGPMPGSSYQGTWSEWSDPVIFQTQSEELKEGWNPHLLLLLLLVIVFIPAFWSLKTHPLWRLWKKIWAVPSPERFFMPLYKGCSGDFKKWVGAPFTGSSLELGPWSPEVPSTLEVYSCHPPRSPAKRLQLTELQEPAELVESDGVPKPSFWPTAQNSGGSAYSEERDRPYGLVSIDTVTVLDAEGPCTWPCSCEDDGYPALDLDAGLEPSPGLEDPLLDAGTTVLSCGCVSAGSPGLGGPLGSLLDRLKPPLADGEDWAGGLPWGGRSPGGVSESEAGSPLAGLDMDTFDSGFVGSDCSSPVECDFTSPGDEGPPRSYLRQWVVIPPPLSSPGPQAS
The entries below are paired with their reported IC50 (nM) in Human IL-21R-TF1 Neutralization Assay.

Example cases with answers are listed next.
BINDER: scFv L16 (scFv) scFv: QVQLQESGPGLVKTSETLSLTCAVSGYSISSGYYWGWIRQPPGKGLEWIGSISHTGNTYYNPPLKSRVTISVDTSKNQFSLKLSSVTAADTAVYYCARGGGISRPEYWGKGTLVTVSSGGGGSGGGGSGGGGSALSSELTQDPPVSVALGQTVTLTCQGDSLRTYYASWYQQKSGQAPILLLYGKHKRPSGIPDRFSGSTSGDTASLTITGAQAEDEADYYCVTRSAKGNPHVLFGGGTQLTVL
RESULT VALUE: 67.4 nM
--
BINDER: scFv L25 (scFv) scFv: QVQLQESGPGLVKTSETLSLTCAVSGYSISSGYYWGWIRQPPGKGLEWIGSISHTGNTYYNPPLKSRVTISVDTSKNQFSLKLSSVTAADTAVYYCARGGGISRPEYWGKGTLVTVSSGGGGSGGGGSGGGGSALSSELTQDPPVSVALGQTVTLTCQGDSLRTYYASWYQQKSGQAPILLLYGKHKRPSGIPDRFSGSTSGDTASLTITGAQAEDEADYYCTTRSNKGNPHVLFGGGTQLTVL
RESULT VALUE: 33.1 nM

Now for the binder whose IC50 (nM) in Human IL-21R-TF1 Neutralization Assay we want.
Request the reported IC50 (nM) in Human IL-21R-TF1 Neutralization Assay associated with scFv L4 (scFv) scFv: QVQLQESGPGLVKTSETLSLTCAVSGYSISSGYYWGWIRQPPGKGLEWIGSISHTGNTYYNPPLKSRVTISVDTSKNQFSLKLSSVTAADTAVYYCARGGGISRPEYWGKGTLVTVSSGGGGSGGGGSGGGGSALSSELTQDPPVSVALGQTVTLTCQGDSLRTYYASWYQQKSGQAPILLLYGKHKRPSGIPDRFSGSTSGDTASLTITGAQAEDEADYYCSTRSSKGNPHVLFGGGTQLTVL
~60 nM

These data points were gathered from patent US20090298167A1.
